- assayed.target: ChuY (Escherichia coli, UniProt Q8X5N4)
- measurement.description: biochemical
quantity: Kd (nM)
The response must be a number in nM with no trailing unit.

Task: Return Kd measured with ChuY (Escherichia coli, UniProt Q8X5N4) given this compound: NC(=O)C1=CN([C@@H]2O[C@H](COP(=O)(O)OP(=O)(O)OC[C@H]3O[C@@H](n4cnc5c(N)ncnc54)[C@H](OP(=O)(O)O)[C@@H]3O)[C@@H](O)[C@H]2O)C=CC1 [NADPH]
Output: 2700
